// Mer (Homo sapiens) Kd records

## Task Entry under review: CCOc1cnn(CCOC(F)F)c1C(=O)Nc1ccc(Oc2ccnc3cc(OC)c(OC)cc23)cn1 . Reported Kd?
## Result 100 to 1000 nM

## Task Entry under review: CCOc1cn(-c2cncc(C)n2)nc1C(=O)Nc1ccc(Oc2ccnc3cc(OC)c(OC)cc23)cn1 . Reported Kd?
## Result < 100 nM

## Task Entry under review: COc1cc2c(Oc3ccc(NC(=O)c4nn(-c5cnc(N)cn5)cc4OCC(F)(F)F)c(F)c3)ccnc2cc1OC(C)C . Reported Kd?
## Result < 100 nM

## Task Entry under review: COc1cc2nccc(Oc3ccc(NC(=O)c4nn(-c5cnc(N)nc5)cc4OCC(F)(F)F)nc3)c2cc1OC . Reported Kd?
## Result < 100 nM

----------
Target protein (sequence): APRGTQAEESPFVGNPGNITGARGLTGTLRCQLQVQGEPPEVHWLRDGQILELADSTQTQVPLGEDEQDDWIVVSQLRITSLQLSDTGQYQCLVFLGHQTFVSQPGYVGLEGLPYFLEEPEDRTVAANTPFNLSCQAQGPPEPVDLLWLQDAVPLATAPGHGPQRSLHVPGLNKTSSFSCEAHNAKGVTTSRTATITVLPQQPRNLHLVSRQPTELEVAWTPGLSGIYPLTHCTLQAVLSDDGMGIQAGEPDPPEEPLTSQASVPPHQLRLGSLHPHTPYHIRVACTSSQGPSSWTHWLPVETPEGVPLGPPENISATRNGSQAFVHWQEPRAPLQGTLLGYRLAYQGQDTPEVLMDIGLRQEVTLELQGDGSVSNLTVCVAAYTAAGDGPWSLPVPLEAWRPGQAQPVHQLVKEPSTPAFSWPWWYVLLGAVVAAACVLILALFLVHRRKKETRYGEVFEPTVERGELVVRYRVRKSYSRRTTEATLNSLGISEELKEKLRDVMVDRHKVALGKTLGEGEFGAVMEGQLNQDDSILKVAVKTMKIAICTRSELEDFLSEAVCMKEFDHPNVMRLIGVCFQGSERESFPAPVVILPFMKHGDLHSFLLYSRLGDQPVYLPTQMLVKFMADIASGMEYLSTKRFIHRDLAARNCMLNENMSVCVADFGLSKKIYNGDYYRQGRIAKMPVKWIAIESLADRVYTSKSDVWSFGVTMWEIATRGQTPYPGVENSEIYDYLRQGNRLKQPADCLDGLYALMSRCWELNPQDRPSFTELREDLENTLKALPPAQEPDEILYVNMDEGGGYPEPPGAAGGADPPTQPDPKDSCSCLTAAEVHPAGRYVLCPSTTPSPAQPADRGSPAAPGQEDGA
pKd: −log10 of the molar value.
Exercise: for every item that follows, state its recorded pKd.

## Task Entry under review: COc1cc2nccc(Oc3ccc(NC(=O)c4nn(-c5cnc(N)nc5)cc4OCC4CNC4)nc3)c2cc1OC . Reported pKd?
## Result 6.00 to 7.00

## Task Entry under review: CCOc1cn(-c2ccc(C#N)nc2)nc1C(=O)Nc1ccc(Oc2ccnc3cc(OC)c(OC)cc23)cn1 . Reported pKd?
## Result 6.00 to 7.00

## Task Entry under review: CCOc1cnn(-c2ccc(Cl)cc2C(F)(F)F)c1C(=O)Nc1ccc(Oc2ccnc3cc(OC)c(OC)cc23)cn1 . Reported pKd?
## Result 6.00 to 7.00

## Task Entry under review: CCOc1cn(-c2ccccn2)nc1C(=O)Nc1ccc(Oc2ccnc3cc(OC)c(OC)cc23)cn1 . Reported pKd?
## Result > 7.00

## Task Entry under review: COc1cc2nccc(Oc3ccc(NC(=O)c4nn(-c5cnc(N)nc5)cc4OC(F)F)nc3)c2cc1OC . Reported pKd?
## Result > 7.00

## Task Entry under review: CCOc1cn(-c2ccc(F)c(CO)c2)nc1C(=O)Nc1ccc(Oc2ccnc3cc(OC)c(OC)cc23)cn1 . Reported pKd?
## Result > 7.00

## Task Entry under review: CCOc1cn(CC(C)=O)nc1C(=O)Nc1ccc(Oc2ccnc3cc(OC)c(OC)cc23)cn1 . Reported pKd?
## Result > 7.00

## Task Entry under review: COc1cc2nccc(Oc3ccc(NC(=O)c4nn(-c5ccc(F)cc5C)cc4OCC(F)(F)F)nc3)c2cc1OC . Reported pKd?
## Result > 7.00

## Task Entry under review: COc1cc2nccc(Oc3ccc(NC(=O)c4nn(-c5ccc(F)cc5C5CCCC5)cc4OCC4CC4)nc3)c2cc1OC . Reported pKd?
## Result 6.00 to 7.00

## Task Entry under review: CCOc1cn(-c2ccc(F)cc2C(C)C)nc1C(=O)Nc1ccc(Oc2ccnc3cc(OC)c(OC)cc23)cn1 . Reported pKd?
## Result > 7.00

## Task Entry under review: CCOc1cn(C2CCN(C)C2)nc1C(=O)Nc1ccc(Oc2ccnc3cc(OC)c(OC)cc23)cc1F (stereo not drawn) . Reported pKd?
## Result 6.00 to 7.00

## Task Entry under review: CCOc1cnn(-c2ccc(C(C)C)cc2)c1C(=O)Nc1ccc(Oc2ccnc3cc(OC)c(OC)cc23)cn1 . Reported pKd?
## Result 6.00 to 7.00

## Task Entry under review: COc1cc2nccc(Oc3ccc(NC(=O)c4nn(-c5ccc(F)cc5-c5ccccc5)cc4OCC4CC4)nc3)c2cc1OC . Reported pKd?
## Result 6.00 to 7.00

## Task Entry under review: CCOc1cn(-c2cnc(N)nc2)nc1C(=O)Nc1ccc(Oc2ccnc3cc(OC)c(OC)cc23)c(F)c1 . Reported pKd?
## Result > 7.00

## Task Entry under review: CCOc1cn(-c2cnccc2Cl)nc1C(=O)Nc1ccc(Oc2ccnc3cc(OC)c(OC)cc23)cc1F . Reported pKd?
## Result > 7.00
